- Tested on: A498 renal
- Experimental details: NCI tumour cell line growth inhibition, 48 h
Where a SMILES comes first, the peptide text is derived from it. Bridges are numbered along the chain shown (N, C = ends). [ ]: non-standard residue; d: D form. Aib = CC(C)(N)C(=O)O; βAla = NCCC(=O)O
Observed property: TGI

Please review the entries below; each comes with its answer.
CC(C)(C)[Si](OC1CCOC1=O)(c1ccccc1)c1ccccc1 (stereo not given) ... 63.8 µM
COc1ccc2ncn(-c3cc(O[C@H](C)c4ccccc4C(F)(F)F)c(C(N)=O)s3)c2c1 ... 0.597 µM
CC(=O)OCCn1cnc2c(NCC=C(C)C)ncnc21 ... > 100 µM
CC(/C=C/C(=O)NO)=C\C(C)C(=O)c1ccc(N(C)C)cc1 (stereo not given) ... 0.257 µM
Cc1nn(CNc2ccccc2C(F)(F)F)c(=S)n1/N=C/c1cccc2cccnc12 ... > 100 µM
CCOC(OC(C)=O)[C@@H]1C=C[C@H](C)N(c2ccc([N+](=O)[O-])cc2)O1 (stereo not given in full) ... > 59.4 µM
CC1(C)NC(=O)C(NC(=O)C(N)CC(=O)O)CCCCNC(=O)CCNC1=O (stereo not given) (H-DK[Aib][βAla]; lactam 2-C; configuration not given here) ... > 100 µM
CCOC(=O)c1nc2cc(C(F)(F)F)ccc2nc1Oc1ccc(C#N)cc1 ... > 100 µM

The reported TGI value, A498 renal, for Cc1ccc2c(c1)C(=C(C#N)C#N)CCCS2(=O)=O reads > 100 µM

Entry C[C@H]1C[C@@H]2[C@H]([C@@H](O)C[C@@]3(C)[C@H]2CC[C@]3(O)C(=O)CO)[C@@]2(C)C=CC(=O)C=C12 , A498 renal data, TGI value: > 100 µM
